Each record here notes measured Non-Keratinized Stratified Epithelia (NKSE) Ocular Surface (min), duration of cooling.
tested on: ocular surface (non-keratinized stratified epithelium); assay: Ocular surface bioassay: duration of cooling after towelette wipe on closed eyelids; type: in vivo, human; conditions: applied to the closed eyelids using a towellette at 1 mg/mL in 5%-95% v/v ethanol-distilled water
Only the number, expressed in min, is required.

Worked cases, Non-Keratinized Stratified Epithelia (NKSE) Ocular Surface (min), duration of cooling given:
| compound | unitAnnotation | endpointValue |
| --- | --- | --- |
| COC(=O)CNC(=O)[C@@H]1C[C@H](C)CC[C@H]1C(C)C [Gly-O-Me] | min | 5 |
| CC(C)OC(=O)CNC(=O)[C@@H]1C[C@H](C)CC[C@H]1C(C)C [Gly-O-iPr] | min | 300 |
| CCCCOC(=O)CNC(=O)[C@@H]1C[C@H](C)CC[C@H]1C(C)C [Gly-O-nBu] | min | 35 |
| CCOC(=O)CNC(=O)[C@@H]1C[C@H](C)CC[C@H]1C(C)C [Gly-O-Et] | min | 15 |

Report Non-Keratinized Stratified Epithelia (NKSE) Ocular Surface (min), duration of cooling, nothing else, for this compound: CCCOC(=O)CNC(=O)[C@@H]1C[C@H](C)CC[C@H]1C(C)C [Gly-O-nPr] 54
